Just for reference, patent US8168651B2 is where these values come from.

target-of-assay: recombinant human PIM1 (Homo sapiens (Human), UniProt P11309)
Sequence (P11309 whole entry): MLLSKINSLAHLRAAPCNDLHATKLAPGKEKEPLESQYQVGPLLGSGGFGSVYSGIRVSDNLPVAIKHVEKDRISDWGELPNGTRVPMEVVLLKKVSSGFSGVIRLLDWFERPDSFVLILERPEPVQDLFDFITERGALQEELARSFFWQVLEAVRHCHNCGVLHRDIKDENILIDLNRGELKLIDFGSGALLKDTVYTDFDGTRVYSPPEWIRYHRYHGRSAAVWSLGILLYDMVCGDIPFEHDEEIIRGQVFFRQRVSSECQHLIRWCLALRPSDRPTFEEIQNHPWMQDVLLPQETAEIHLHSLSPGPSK
assay-text: PIM-1 kinase activity in cell-free in vitro assay
Type: biochemical
test-settings: 500 nM compound, cell-free; read-out: PIM-1: % inh 500 nM
endpoint: inhibition at 0.5 µM (%)

{"molecule": "O=C(O)c1ccc2c(c1)nc(OCCCO)c1ccsc12", "inhibition at 0.5 µM (%)": -34.7}
{"molecule": "O=C(O)c1ccc2c(c1)nc(NCc1ccccc1)c1ccncc12 [drawing 1557]", "inhibition at 0.5 µM (%)": 44.4}
{"molecule": "Cc1cc(CNC(=O)c2cccc(Nc3nc4cc(-c5nnn[nH]5)ccc4c4sccc34)c2)no1 [drawing 1507]", "inhibition at 0.5 µM (%)": 37.6}

(a) O=C(O)c1ccc2c(c1)nc(Nc1cccc(O)c1)c1ccsc12
(b) O=C(O)c1ccc2c(c1)nc(Nc1ccc(F)cc1)c1ccsc12
I'd appreciate it if you could identify which of a and b has the greater inhibition at 0.5 µM. Selection: enter the item's label. b

(A) CS(=O)(=O)NC(=O)c1ccc2c(c1)nc(Nc1ccccc1)c1ccsc12
(B) O=C(O)c1ccc2c(c1)nc(Nc1nc3ccccc3[nH]1)c1ccsc12
(C) CNC(=O)c1cccc(Nc2nc3cc(C(=O)O)ccc3c3sccc23)c1
(D) CN(C)CCNC(=O)Cc1cccc(Nc2nc3cc(C(=O)O)ccc3c3sccc23)c1
Ascending by inhibition at 0.5 µM, please. Please list the labels according to the requested order. B, A, C, D

(P) CN(C)CCNC(=O)c1cccc(Nc2nc3cc(C(=O)O)ccc3c3sccc23)c1
(Q) O=C(O)c1ccc2c(c1)nc(Nc1cccc(Oc3ccccc3)c1)c1ccsc12
(R) COc1ccc(Nc2nc3cc(-c4nnn[nH]4)ccc3c3sccc23)cc1Cl
Sort ascending by inhibition at 0.5 µM. Please respond by ranking the labels in the order requested. Q, R, P
(Q: -10.2%, R: 25.6%, P: 74.7%)
